Cited source for all entries: ChEMBL document CHEMBL2016442

# TEST_NAME: Therapeutic index, ratio of TD50 for human fibroblast cell to ID 50 for Toxoplasma gondii ATCC 50839
# Assay type: cell-based
# EXPERIMENTAL_PARAMETERS: human fibroblast cells, read-out: TI
Label key: true (1) means selectivity ratio under 60; false (0) means selectivity ratio of 60 or more.

Worked examples follow.
* COc1ccc2c(c1OC)CN1CCc3cc4c(cc3C1=C2)OCO4 [DIHYDROBERBERINE] | false (0)
* COc1ccc2cc3[n+](cc2c1OC(C)=O)CCc1cc2c(cc1-3)OCO2 | false (0)
* COc1ccc2c(c1OC)CN1CCc3cc4c(cc3[C@@H]1C2)OCO4 | true (1)
* CCOc1c(OC)ccc2cc3[n+](cc12)CCc1cc2c(cc1-3)OCO2 | true (1)
* COc1ccc2cc3[n+](cc2c1O)CCc1cc2c(cc1-3)OCO2 | false (0)
* CCCC(=O)Oc1c(OC)ccc2cc3[n+](cc12)CCc1cc2c(cc1-3)OCO2 | false (0)

Okay, now this compound:
(Q) Is it true that selectivity ratio reported for "CCCCCOc1c(OC)ccc2cc3[n+](cc12)CCc1cc2c(cc1-3)OCO2" is less than 60?
(A) true (1)
